# assay-summary: in vitro
metric-name: viability at 48 h, 5 µM (%)
Give the value in % but do not write % after it.

// worked examples, viability at 48 h, 5 µM included
compound	unit	observed-value
COc1ccc(C(C)C)cc1CNC1C2CCN(CC2)C1C(c1ccccc1)c1ccccc1 (stereo not drawn)	%	96.4
OCCN1CCN(CCCN2c3ccccc3Sc3ccc(Cl)cc32)CC1	%	110
COc1ccc2c(c1)CCC(c1ccccc1)=C2c1ccc(OCCN2CCCC2)cc1	%	110
CC1=C(c2ccc(O)cc2)[C@H](c2ccc(OCCN3CCCCC3)cc2)Oc2cc(O)ccc21	%	88
CN(C)c1ccc(C(=C2C=CC(=[N+](C)C)C=C2)c2ccc(N(C)C)cc2)cc1 [Gentian violet, reference compound]	%	101

// query viability at 48 h, 5 µM value for entry CC1(C)CC[C@]2(C(=O)O)CC[C@]3(C)[C@H](C(=O)C=C4[C@@]5(C)C=C(C#N)C(=O)C(C)(C)[C@@H]5CC[C@]43C)[C@@H]2C1 [Bardoxolone, reference compound]
118

Thanks! And CC(Cc1ccccc1)NCCC(c1ccccc1)c1ccccc1 (stereo not drawn) ?
102

The origin of these recorded values is paper PMC10916382.
